- Study target: SCD5 (Homo sapiens, UniProt Q86SK9)
- Construct: host or cells: S. cerevisiae ole1Δ strain, plasmid pRS316 with TDH3 promoter and CYC1 terminator
- Sequence (Q86SK9 whole entry): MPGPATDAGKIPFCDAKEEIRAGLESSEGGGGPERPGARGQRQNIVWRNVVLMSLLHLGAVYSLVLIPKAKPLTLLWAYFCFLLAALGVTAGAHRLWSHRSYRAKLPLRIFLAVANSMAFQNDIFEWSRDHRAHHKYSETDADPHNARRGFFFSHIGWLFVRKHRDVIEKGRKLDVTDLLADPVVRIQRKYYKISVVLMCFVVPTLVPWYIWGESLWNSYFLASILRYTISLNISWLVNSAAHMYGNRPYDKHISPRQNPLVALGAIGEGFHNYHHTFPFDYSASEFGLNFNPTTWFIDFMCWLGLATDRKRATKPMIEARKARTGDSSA
- Method: Growth inhibition of humanized yeast expressing SCD5 as sole desaturase
- Format: cell-based
- Condition set: humanized yeast strain, 40 h
Observation type: pIC50
By convention, pIC50 is the negative base-10 log of a molar concentration.

## Task Data request, read-out pIC50, for "CC(C)(C)OC(=O)N1CCN(c2noc(-c3ccc4cnn(C5COC5)c4c3)n2)CC1"
## Result 8.00

## Task Data request, read-out pIC50, for COC(=O)C1CCCN(c2noc(-c3ccc4cnn(C5COC5)c4c3)n2)CC1 (stereo not shown)
## Result 4.57

## Task Data request, read-out pIC50, for "COCC(C)(C)n1ncc2ccc(-c3noc(C4CCN(C(=O)OC(C)(C)C)CC4)n3)cc21"
## Result 5.21

## Task Data request, read-out pIC50, for "CC(=O)N1CC(n2cc3ccc(-c4nc(C5CCN(C(=O)OC(C)(C)C)CC5)no4)cc3n2)C1"
## Result 8.00

The measured values listed here are drawn from patent US20240400546A1.
